study.target: Polyunsaturated fatty acid 5-lipoxygenase (Homo sapiens)
Sequence (P09917 whole entry): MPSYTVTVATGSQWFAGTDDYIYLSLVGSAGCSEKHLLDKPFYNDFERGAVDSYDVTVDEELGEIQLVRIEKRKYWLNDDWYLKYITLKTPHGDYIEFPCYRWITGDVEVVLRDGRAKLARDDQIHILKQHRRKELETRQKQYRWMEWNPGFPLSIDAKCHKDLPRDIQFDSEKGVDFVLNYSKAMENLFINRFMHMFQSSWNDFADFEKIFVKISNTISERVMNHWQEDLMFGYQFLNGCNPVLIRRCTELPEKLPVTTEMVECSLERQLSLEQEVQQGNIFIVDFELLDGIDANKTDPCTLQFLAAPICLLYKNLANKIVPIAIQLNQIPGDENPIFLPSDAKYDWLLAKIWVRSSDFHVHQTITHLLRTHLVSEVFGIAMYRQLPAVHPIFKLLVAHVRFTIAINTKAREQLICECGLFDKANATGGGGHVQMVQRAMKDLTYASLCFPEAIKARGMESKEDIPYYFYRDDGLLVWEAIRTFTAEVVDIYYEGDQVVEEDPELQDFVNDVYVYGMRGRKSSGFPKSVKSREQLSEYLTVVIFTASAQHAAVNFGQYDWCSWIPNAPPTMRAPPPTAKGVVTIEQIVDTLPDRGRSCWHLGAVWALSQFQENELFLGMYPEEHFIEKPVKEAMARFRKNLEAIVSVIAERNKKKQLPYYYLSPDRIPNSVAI
assay.method.text: Inhibition of 5-lipoxygenase in A23187-stimulated human PMNL assessed as enzyme product formation preincubated 15 mins by RP-HPLC analysis in presence of exogenous arachidonic acid
pIC50: −log10 of the molar value.
As shown below, each of these molecules has a reported pIC50 value.
measured.attribute: pIC50

INSERT INTO measurements (molecule, study_target, value_prefix, recorded_measurement) VALUES
  ('CCCCC(Sc1ccc(OCCCOc2cccc(C)c2)cc1)C(=O)O (centres undefined)', 'Polyunsaturated fatty acid 5-lipoxygenase (Homo sapiens)', '=', 5.32),
  ('CCCCC(Sc1ccc(OCCCOc2ccc(-c3ccccc3)cc2)cc1)C(=O)O (centres undefined)', 'Polyunsaturated fatty acid 5-lipoxygenase (Homo sapiens)', '=', 6.05),
  ('CCCCC(Sc1ccc(OCCCOc2cccc3c2CCCC3)cc1)C(=O)O (centres undefined)', 'Polyunsaturated fatty acid 5-lipoxygenase (Homo sapiens)', '=', 5.85),
  ('CCCCC(Sc1ccc(OCCCOc2ccccc2C(C)C)cc1)C(=O)O (centres undefined)', 'Polyunsaturated fatty acid 5-lipoxygenase (Homo sapiens)', '=', 5.80),
  ('CCCC/C(=C\c1ccc(OCCCOc2cccc(C)c2C)cc1)C(=O)O', 'Polyunsaturated fatty acid 5-lipoxygenase (Homo sapiens)', '=', 5.80),
  ('CCCCC(Sc1ccc(OCCCOc2cccc(OC)c2)cc1)C(=O)O (centres undefined)', 'Polyunsaturated fatty acid 5-lipoxygenase (Homo sapiens)', '=', 5.32),
  ('CCCCC(Sc1ccc(OCCCOc2ccc3ncccc3c2)cc1)C(=O)O (centres undefined)', 'Polyunsaturated fatty acid 5-lipoxygenase (Homo sapiens)', '<', 5.00),
  ('CCCCC(Sc1ccc(OCCCOc2ccc(-c3ccccc3)cc2)cc1)C(=O)OCC (centres undefined)', 'Polyunsaturated fatty acid 5-lipoxygenase (Homo sapiens)', '<', 5.00),
  ('CCCCC(Sc1ccc(OCCCOc2ccc(C)cc2)cc1)C(=O)O (centres undefined)', 'Polyunsaturated fatty acid 5-lipoxygenase (Homo sapiens)', '=', 5.28),
  ('CCCCC(Cc1ccc(OCCCOc2cccc(C)c2C)cc1)C(=O)O (centres undefined)', 'Polyunsaturated fatty acid 5-lipoxygenase (Homo sapiens)', '=', 5.70),
  ('Cc1cccc(OCCCOc2ccc(SCC(=O)O)cc2)c1C', 'Polyunsaturated fatty acid 5-lipoxygenase (Homo sapiens)', '<', 5.00),
  ('CCCCC(Sc1ccc(OCCCOc2ccccc2)cc1)C(=O)O (centres undefined)', 'Polyunsaturated fatty acid 5-lipoxygenase (Homo sapiens)', '=', 5.02),
  ('CCCCC(Sc1ccc(OCCCOc2ccccc2C)cc1)C(=O)O (centres undefined)', 'Polyunsaturated fatty acid 5-lipoxygenase (Homo sapiens)', '=', 5.32),
  ('CCCCC(Sc1ccc(OCCCOc2cccc3c2CCCC3)cc1)C(=O)OCC (centres undefined)', 'Polyunsaturated fatty acid 5-lipoxygenase (Homo sapiens)', '<', 5.00),
  ('CCCC[C@@H](Sc1ccc(OCCCOc2cccc(C)c2C)cc1)C(=O)O', 'Polyunsaturated fatty acid 5-lipoxygenase (Homo sapiens)', '=', 5.96),
  ('CCCCC(Sc1ccc(OCCCOc2cccc(C(F)(F)F)c2)cc1)C(=O)O (centres undefined)', 'Polyunsaturated fatty acid 5-lipoxygenase (Homo sapiens)', '=', 5.80),
  ('CCCCC(Sc1ccc(OCCCOc2cccc(C)c2C)cc1)C(=O)O (centres undefined)', 'Polyunsaturated fatty acid 5-lipoxygenase (Homo sapiens)', '=', 5.52),
  ('CCCCC(Sc1ccc(OCCCOc2ccc(Cl)cc2OC)cc1)C(=O)O (centres undefined)', 'Polyunsaturated fatty acid 5-lipoxygenase (Homo sapiens)', '<', 5.00),
  ('CCCCC(Sc1ccc(OCCCOc2ccccc2OC)cc1)C(=O)O (centres undefined)', 'Polyunsaturated fatty acid 5-lipoxygenase (Homo sapiens)', '<', 5.00),
  ('CCCCC(Sc1ccc(OCCCOc2ccc(Cl)c(C(F)(F)F)c2)cc1)C(=O)O (centres undefined)', 'Polyunsaturated fatty acid 5-lipoxygenase (Homo sapiens)', '=', 5.82),
  ('Cc1cccc(OCCCOc2ccc(CCC(=O)O)cc2)c1C', 'Polyunsaturated fatty acid 5-lipoxygenase (Homo sapiens)', '<', 5.00),
  ('CCCCC(Sc1ccc(OCCCOc2ccc3ncccc3c2)cc1)C(=O)OCC (centres undefined)', 'Polyunsaturated fatty acid 5-lipoxygenase (Homo sapiens)', '=', 6.10),
  ('CCCC[C@H](Sc1ccc(OCCCOc2cccc(C)c2C)cc1)C(=O)O', 'Polyunsaturated fatty acid 5-lipoxygenase (Homo sapiens)', '=', 5.70),
  ('CCCCC(Sc1ccc(OCCCOc2cccc(C(C)C)c2)cc1)C(=O)O (centres undefined)', 'Polyunsaturated fatty acid 5-lipoxygenase (Homo sapiens)', '=', 5.85);
